The molecules listed here are annotated with their pKi.
molecular target: δ opioid receptor (DOR) (Homo sapiens)
Sequence (P41143 whole entry): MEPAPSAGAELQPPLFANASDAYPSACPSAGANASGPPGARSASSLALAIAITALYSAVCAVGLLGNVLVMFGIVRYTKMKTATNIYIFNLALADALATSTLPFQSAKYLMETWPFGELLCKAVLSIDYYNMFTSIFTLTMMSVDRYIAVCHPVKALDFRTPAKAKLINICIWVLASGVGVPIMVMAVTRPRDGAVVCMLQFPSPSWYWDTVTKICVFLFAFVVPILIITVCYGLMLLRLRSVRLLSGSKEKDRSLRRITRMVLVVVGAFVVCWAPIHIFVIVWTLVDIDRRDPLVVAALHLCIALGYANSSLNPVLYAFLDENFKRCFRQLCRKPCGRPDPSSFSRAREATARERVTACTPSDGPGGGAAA
// returns pKi (minus log10 of molar concentration), number only

Ask: Entry under review: O=C(N[C@@H]1CC[C@@]2(O)[C@H]3Cc4ccc(O)c5c4[C@@]2(CCN3CC2CC2)[C@H]1O5)c1nccs1 [Compound 14] . Reported pKi?
Reply: 6.93

Ask: O=C(Cc1ccns1)N[C@H]1CC[C@@]2(O)[C@H]3Cc4ccc(O)c5c4[C@@]2(CCN3CC2CC2)[C@H]1O5 [Compound 2] , same question.
Reply: 7.86

Ask: O=C(N[C@H]1CC[C@@]2(O)[C@H]3Cc4ccc(O)c5c4[C@@]2(CCN3CC2CC2)[C@H]1O5)c1cncs1 [Compound 3] , same question.
Reply: 7.77

Ask: O=C(CCc1cncs1)N[C@H]1CC[C@@]2(O)[C@H]3Cc4ccc(O)c5c4[C@@]2(CCN3CC2CC2)[C@H]1O5 [Compound 5] , same question.
Reply: 7.94

Ask: O=C(N[C@H]1CC[C@@]2(O)[C@H]3Cc4ccc(O)c5c4[C@@]2(CCN3CC2CC2)[C@H]1O5)c1nccs1 [Compound 6] , same question.
Reply: 7.39

Ask: O=C(Cc1nccs1)N[C@@H]1CC[C@@]2(O)[C@H]3Cc4ccc(O)c5c4[C@@]2(CCN3CC2CC2)[C@H]1O5 [Compound 15] , same question.
Reply: 7.58

Ask: O=C(N[C@@H]1CC[C@@]2(O)[C@H]3Cc4ccc(O)c5c4[C@@]2(CCN3CC2CC2)[C@H]1O5)c1ccns1 [Compound 9] , same question.
Reply: 7.17

Ask: O=C(Cc1cncs1)N[C@@H]1CC[C@@]2(O)[C@H]3Cc4ccc(O)c5c4[C@@]2(CCN3CC2CC2)[C@H]1O5 [Compound 12] , same question.
Reply: 7.76

Ask: O=C(N[C@@H]1CC[C@@]2(O)[C@H]3Cc4ccc(O)c5c4[C@@]2(CCN3CC2CC2)[C@H]1O5)c1cncs1 [Compound 11] , same question.
Reply: 7.11
